Test system: NCI-H23 lung
Assay: NCI tumour cell line growth inhibition, 48 h
Would you kindly list TGI for each of these compounds?
Numbers only, in µM.

1) C=C(CO)[C@@H]1CC[C@]2(COC3CCCCO3)CC[C@]3(C)[C@H](CC[C@@H]4[C@@]5(C)C=C(C=O)C(=O)C(C)(C)[C@@H]5CC[C@]43C)[C@@H]12 (some centres undefined) = 1.02
2) CO/N=C\c1cc(O)c(O)c(/C=N/OC)c1 = 99.4
3) O=C1C2CCN(CC2)C1(CO)CO = 61.9

Please look at the items below and tell me TGI for each one, in order.
1. CN(Cc1cc(Br)cc(Br)c1O)Cc1c(O)ccc2ccccc12
2. CC1=C(/C=C/C(C)=C/C=C/C(C)=C/C(=O)O)C(C)(C)CCC1

1. 50.6
2. 79.3

Please look at the items below and tell me TGI for each one, in order.
1. CCOc1ccccc1-c1nc2c(s1)C(=O)c1ccccc1C2=O
2. CCN(CCCl)c1cc(CN(C)C)cc(NC(=O)C23CCC(C(=O)Nc4cc(CN(C)C)cc(N(CC)CCCl)c4)(CC2)CC3)c1
3. COc1cc(/C=C\c2nnc(/C=C\c3ccc(O)c(OC)c3)s2)ccc1O
4. O=S(=O)(SC1=NCCN1)c1cccc2ccccc12

[31, 4.71, 12.2, 91.2]
